Measured IC50 of individual entries
# target: dipeptidyl peptidase IV (Homo sapiens, UniProt P27487)
# Sequence (P27487 whole entry, species assumed): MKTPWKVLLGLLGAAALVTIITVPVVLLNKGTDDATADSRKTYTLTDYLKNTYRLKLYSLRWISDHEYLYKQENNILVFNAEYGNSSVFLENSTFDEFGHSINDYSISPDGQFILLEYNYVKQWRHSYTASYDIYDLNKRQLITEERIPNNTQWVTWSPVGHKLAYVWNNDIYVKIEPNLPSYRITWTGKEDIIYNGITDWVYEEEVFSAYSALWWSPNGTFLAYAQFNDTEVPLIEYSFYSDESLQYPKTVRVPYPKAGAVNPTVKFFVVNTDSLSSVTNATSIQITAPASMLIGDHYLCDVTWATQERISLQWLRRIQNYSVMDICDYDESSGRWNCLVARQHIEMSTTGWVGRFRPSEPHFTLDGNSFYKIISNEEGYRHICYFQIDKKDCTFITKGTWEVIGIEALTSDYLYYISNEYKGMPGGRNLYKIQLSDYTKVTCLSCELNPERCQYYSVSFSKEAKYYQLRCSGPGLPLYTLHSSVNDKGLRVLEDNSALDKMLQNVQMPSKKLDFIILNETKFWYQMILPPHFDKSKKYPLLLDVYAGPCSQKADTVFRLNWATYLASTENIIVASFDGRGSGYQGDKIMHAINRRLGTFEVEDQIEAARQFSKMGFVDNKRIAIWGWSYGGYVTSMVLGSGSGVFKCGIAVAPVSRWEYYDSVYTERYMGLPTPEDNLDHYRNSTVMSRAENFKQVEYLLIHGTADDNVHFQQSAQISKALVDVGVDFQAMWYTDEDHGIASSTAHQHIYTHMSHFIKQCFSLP
# test: biochemical
# conditionSummary: values without "*" = IC-50; read-out: IC50DPIV
Give the number; µM is assumed, so skip it.

# count of solved cases: 3
1. O=C1c2ccccc2C(=O)N1c1cccc(-c2csc(N3N=C(c4cccc([N+](=O)[O-])c4)CC3c3ccc(F)cc3)n2)c1 (stereo not drawn) [D3.050]
39.8
2. COc1ccc(N2CCN(c3nc4c(c(=O)[nH]c(=O)n4C)n3Cc3ccccc3)CC2)cc1 [D5.020]
19.2
3. O=C(Oc1csc(-c2cccnc2)n1)C1CC1 [D4.061]
52.5

Req: So what does the record say about IC50 for O=C1NCCCCC1Nc1ccc(N2C(=O)CCCC2=O)cc1[N+](=O)[O-] (stereo not drawn) [D1.003] ?
Resp: 34.1

Req: I am curious: what IC50 value has been reported for O=C(N/N=C/c1cc(I)cc(I)c1O)c1ccc(NC(=O)c2ccccc2)cc1 [D10.062] ?
Resp: 39.7

Req: // IC50 lookup, key: CC1CCN(C(=O)/C(=C\c2ccco2)NC(=O)c2ccc(Cl)cc2)CC1 [D6.027]
Resp: 18.5

Req: Field request: IC50 | item: CCOC(=O)c1ccc(-c2ccc(/C=C3\C(=O)N(CCO)C(=O)C(C#N)=C3C)o2)cc1 [D4.074]
Resp: 65.9

// data source = patent US20070037785A1
